These entries and their values trace back to ChEMBL document CHEMBL1127023.

target: Angiotensin II receptor (Rattus norvegicus) (UniProt P29089+P25095+P35351); experiment: In vivo inhibition of angiotensin II (0.1 ug/kg) induced increase in blood pressure in conscious male rat at 3 mg/kg for 3h/7h.; type: functional, organism-based; design: dose 3 mg/kg
Readout: inhibition (%)
Give a bare numeral; the unit % is implied.

> print(dat)
                            compound.string  test.result
1  CCCCc1nc2cccc(CN(C)C)c2n1Cc1ccc(-c2ccccc2-c2nn[nH]n2)cc1           12
2  CCCCc1nc2cc(Cl)cc(C(=O)O)c2n1Cc1ccc(-c2ccccc2-c2nn[nH]n2)cc1           23
3  CCCCc1nc2cccc(C(=O)OC)c2n1Cc1ccc(-c2ccccc2-c2nn[nH]n2)cc1           78
4  CCCCc1nc2cc(C)cc(C(=O)O)c2n1Cc1ccc(-c2ccccc2-c2nn[nH]n2)cc1           80
5  CCCCc1nc2cccc(OC)c2n1Cc1ccc(-c2ccccc2-c2nn[nH]n2)cc1           -6

Can you look up the measured inhibition of CCCCc1nc2cccc(CC(=O)OCC)c2n1Cc1ccc(-c2ccccc2-c2nn[nH]n2)cc1 for me?
24

// query inhibition value for entry CCCCc1nc2cccc(COC)c2n1Cc1ccc(-c2ccccc2-c2nn[nH]n2)cc1
54

Can you look up the measured inhibition of CCCCc1nc2cccc(C(=O)OCC)c2n1Cc1ccc(-c2ccccc2-c2nn[nH]n2)cc1 for me?
51

Fill blank: measured inhibition of the compound CCCCc1nc2cccc(O)c2n1Cc1ccc(-c2ccccc2-c2nn[nH]n2)cc1 is ____.
2
